- Tested on: J82
- assay.explanation: Cell panel screen (CellTiter-Glo)
- Assay type: cell-based, human
- condition.label: J82 (Urinary bladder), 20 micromolar, 72 hrs
Listing: Percent Inhibition of selected molecules
// units = %; emit number, no label

molecule | target.system | reading.unit | Percent Inhibition
CCOC(=O)C1OC(Oc2cc(O)c3c(c2)OC(c2ccc(O)c(O)c2)CC3=O)C(O)C(O)C1O (stereo not drawn) [gly-3] | J82 | % | -7

QUERY: Identify measured Percent Inhibition associated with O=c1c2cc(O)ccc2oc2cccc(O)c12 [gl-20]
RESULT: 60

QUERY: Report measured Percent Inhibition; entry is CC(C)=CCc1c(O)c(O)cc2oc3cc(O)cc(O)c3c(=O)c12 [bn-10]
RESULT: 29

QUERY: Look up and state reported Percent Inhibition for CC(C)=CCc1c(O)cc2oc3c(c(=O)c2c1O)C(CC=C(C)C)(CC=C(C)C)C(=O)C(O)=C3 [bn-2, Allanxanthone C]
RESULT: 43

QUERY: Assign Percent Inhibition to the following record: COc1cc(O)c2c(=O)c3cc(CC=C(C)C)c(O)c(O)c3oc2c1CC=C(C)C [Go-15]
RESULT: 74

QUERY: Entry O=C1c2c(O)cc(O)cc2OC(c2ccc(O)c(O)c2)C1O (stereo not drawn) [gl-34] needs its Percent Inhibition filled in; supply it.
RESULT: 3

These measurements were taken from paper PMC4450297.
